System: A549
testProtocol: Antiproliferative activity human A549 cells after 96 hrs by MTT assay
measurementParameters: Homo sapiens, A549, 96 h; read-out: IC50
pIC50: −log10 of the molar value.
measuredEndpoint: pIC50

Worked examples follow.
Cc1cc(O)c(O)cc1C1CCCCC1 :: 4.56
CC1=CC(=O)C(C2C=CCCC2)=CC1=O (stereo not given) :: 4.51

A. O=C1C=C(C2CCCCC2)C(=O)C=C1C1CCCCC1
B. CC(=O)O[C@H]1C(=O)[C@@]2(C)[C@H]([C@H](OC(=O)c3ccccc3)[C@]3(O)C[C@H](OC(=O)[C@H](O)[C@@H](NC(=O)c4ccccc4)c4ccccc4)C(C)=C1C3(C)C)[C@]1(OC(C)=O)CO[C@@H]1C[C@@H]2O [PACLITAXEL]
Which item exceeds the other in pIC50, A or B ? Pick one and reply with its label.
B
(B: 8.31, A: 4.50)

* * *

Test system: A549
testProtocol: Antiproliferative activity human A549 cells after 96 hrs by MTT assay
measurementParameters: Homo sapiens, A549, 96 h; read-out: IC50
pIC50: −log10 of the molar value.
measuredEndpoint: pIC50

O=C1C=C(C2C=CCCC2)C(=O)c2ccccc21 (stereo not drawn) :: 4.50
CC(C)(C)c1cc(O)c(C2CCCCC2)cc1O :: 4.44
CO[C@@H]1[C@H](OC(=O)NC(=O)CCl)CCC2(CO2)[C@H]1[C@@]1(C)O[C@@H]1CC=C(C)C (single isomer, unassigned) :: 4.30
Cc1cc(O)c(O)c(C2C=CCCC2)c1 (stereo not drawn) :: 4.46

I. Cc1ccc(C2C=CCCC2)c(O)c1O (stereo not drawn)
II. Cc1cc(O)c(O)cc1C1C=CCCC1 (stereo not drawn)
Which has the smaller recorded pIC50, I or II ? Refer to your chosen item by its label in the answer.
I

* * *

Tested on: MCF7
testProtocol: Antiproliferative activity human MCF7 cells after 96 hrs by MTT assay
measurementParameters: Homo sapiens, MCF7, 96 h; read-out: IC50
// reported IC50 per item

// solved cases for IC50 follow
Oc1c(C2C=CCCC2)ccc2ccccc12 (stereo not drawn) :: ≥ 50 µM
CC(C)(C)c1cc(O)c(C2CCCCC2)cc1O :: ≥ 50 µM
CC(C)(C)C1=CC(=O)C(C2CCCCC2)=CC1=O :: ≥ 50 µM
O=C1C=C(C2CCCCC2)C(=O)C=C1C1CCCCC1 :: ≥ 50 µM
Oc1cc(C2C=CCCC2)c(O)cc1C1C=CCCC1 (stereo not drawn) :: ≥ 50 µM
CC(C)(C)c1cc(O)c(O)c(C2C=CCCC2)c1 (stereo not drawn) :: ≥ 50 µM
CC(C)(C)c1cc2c(cc1O)C1CCCCC1O2 (stereo not drawn) :: ≥ 50 µM
Oc1c(C2C=CCCC2)ccc(C2C=CCCC2)c1O (stereo not drawn) :: ≥ 50 µM

Item under review: CC(C)(C)c1cc(O)c(C2C=CCCC2)cc1O (stereo not drawn) . Reported IC50?
≥ 50 µM

Please look up its IC50: CC1=CC(=O)C(C2C=CCCC2)=CC1=O (stereo not drawn)
≥ 50 µM

If you can, please state the reported IC50 value of Cc1cc(O)c(O)cc1C1CCCCC1 .
31.1 µM

// IC50 lookup, key: Cc1cc(O)c(O)cc1C1C=CCCC1 (stereo not drawn)
26.4 µM

Form field: reported IC50 of Oc1ccccc1C1C=CCCC1 (stereo not drawn)
≥ 50 µM

* * *

System: MCF7
testProtocol: Antiproliferative activity human MCF7 cells after 96 hrs by MTT assay
measurementParameters: Homo sapiens, MCF7, 96 h; read-out: IC50
measuredEndpoint: IC50

Consider the worked cases shown below.
CO[C@@H]1[C@H](OC(=O)NC(=O)CCl)CCC2(CO2)[C@H]1[C@@]1(C)O[C@@H]1CC=C(C)C (single isomer, unassigned) [O-CHLOROACETYLCARBAMOYLFUMAGILLOL] :: ≥ 50 µM
Oc1cc(C2CCCCC2)c(O)cc1C1CCCCC1 :: ≥ 50 µM
CC(C)(C)c1cc(O)cc(C2C=CCCC2)c1O (centres undefined) :: ≥ 50 µM
Cc1c(O)c(C2C=CCCC2)cc(C2C=CCCC2)c1O (centres undefined) :: ≥ 50 µM
O=C1C=C(C2C=CCCC2)C(=O)C=C1C1C=CCCC1 (centres undefined) :: ≥ 50 µM

Which IC50 reading was recorded for the compound Cc1cc(O)c(O)c(C2C=CCCC2)c1 (centres undefined) ?
≥ 50 µM

What IC50 value was documented for this compound, O=C1C=C(C2C=CCCC2)C(=O)c2ccccc21 (centres undefined) ?
40.2 µM

Quick check: IC50 of Cc1ccc(C2C=CCCC2)c(O)c1O (centres undefined) ?
32.4 µM

Form field: reported IC50 of CC(C)(C)C1=CC(=O)C(C2C=CCCC2)=CC1=O (centres undefined)
≥ 50 µM
